target-under-test: Neu5Ac(a2-3)Gal(b1-3)GalNAc
protocol-summary: glycan array binding signal (z-score within array); higher = stronger binding
condition-summary: glycan notation: IUPAC condensed, linker removed
Shown is part of a subset that was picked to be rich in the strongest signals.
property-label: glycan array binding signal (z-score)
One number for each entry.

* LgFlo1 (Saccharomyces pastorianus), B3IUA8 (protein) SGSTQACLPVGSRKNGMNVNFYKYSLQDSTTYSDPQYMAYKYSDTKKLGSVSGQTHLSIYYGPNTAFWNTASWSSDLFGFYTTPTNVTVEMTGYFLPPQTGSYTFKFATVDDSAILSVGGSIAFECCAQEQPPITSTDFTINGIKPWDAATPTDIKGSTYMYAGYYYPIKIVYSNAKALARLPVSVVLPDGTEVNDDFEGYVYSFDDDLSQSNCTIPDPSKHTTS | 5.83
* Annexin-A1 (Mus musculus), P10107 (protein) MAMVSEFLKQARFLENQEQEYVQAVKSYKGGPGSAVSPYPSFNVSSDVAALHKAIMVKGVDEATIIDILTKRTNAQRQQIKAAYLQENGKPLDEVLRKALTGHLEEVVLAMLKTPAQFDADELRGAMKGLGTDEDTLIEILTTRSNEQIREINRVYREELKRDLAKDITSDTSGDFRKALLALAKGDRCQDLSVNQDLADTDARALYEAGERRKGTDVNVFTTILTSRSFPHLRRVFQNYGKYSQHDMNKALDLELKGDIEKCLTTIVKCATSTPAFFAEKLYEAMKGAGTRHKALIRIMVSRSEIDMNEIKVFYQKKYGISLCQAILDETKGDYEKILVALCGGN | -0.573

I would be grateful if you could provide glycan array binding signal (z-score) for each of the following entries.
1. PpFlo1 (Pichia pastoris) (protein) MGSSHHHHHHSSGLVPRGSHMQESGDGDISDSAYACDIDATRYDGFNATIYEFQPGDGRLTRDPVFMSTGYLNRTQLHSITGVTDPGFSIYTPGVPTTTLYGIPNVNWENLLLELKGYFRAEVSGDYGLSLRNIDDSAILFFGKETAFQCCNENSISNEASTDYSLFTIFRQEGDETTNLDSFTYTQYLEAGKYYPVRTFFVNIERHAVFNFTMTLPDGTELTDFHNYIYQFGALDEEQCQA
2. UEA-I (Ulex europaeus), P22972 (protein) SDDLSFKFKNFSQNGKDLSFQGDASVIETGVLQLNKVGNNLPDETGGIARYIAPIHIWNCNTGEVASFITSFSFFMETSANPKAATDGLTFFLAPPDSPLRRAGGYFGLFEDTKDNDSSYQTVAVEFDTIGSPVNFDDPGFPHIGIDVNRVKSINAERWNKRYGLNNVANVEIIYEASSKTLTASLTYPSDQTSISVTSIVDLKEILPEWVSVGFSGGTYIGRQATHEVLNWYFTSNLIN

-0.261
-0.18

I would be grateful if you could provide glycan array binding signal (z-score) for each of the following entries.
1. MGL (Homo sapiens), Q8IUN9 (protein) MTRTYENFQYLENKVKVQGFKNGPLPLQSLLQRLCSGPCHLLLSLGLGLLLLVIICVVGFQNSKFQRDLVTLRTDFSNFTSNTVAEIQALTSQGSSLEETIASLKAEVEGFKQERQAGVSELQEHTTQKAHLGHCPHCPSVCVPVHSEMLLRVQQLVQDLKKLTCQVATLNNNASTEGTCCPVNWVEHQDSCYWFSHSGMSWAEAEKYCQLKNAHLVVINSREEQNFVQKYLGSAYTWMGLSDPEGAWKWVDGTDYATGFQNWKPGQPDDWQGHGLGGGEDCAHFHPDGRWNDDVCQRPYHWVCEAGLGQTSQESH
2. HPL (Tachypleus tridentatus) (protein) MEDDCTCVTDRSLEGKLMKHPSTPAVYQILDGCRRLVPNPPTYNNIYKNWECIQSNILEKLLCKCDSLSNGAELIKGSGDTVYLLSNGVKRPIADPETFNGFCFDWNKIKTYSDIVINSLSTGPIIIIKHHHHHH

[-0.241, -0.291]

I would be grateful if you could provide glycan array binding signal (z-score) for each of the following entries.
1. Langerin CRD (Homo sapiens), Q9UJ71 (protein) QVVSQGWKYFKGNFYYFSLIPKTWYSAEQFCVSRNSHLTSVTSESEQEFLYKTAGGLIYWIGLTKAGMEGDWSWVDDTPFNKVQSVRFWIPGEPNNAGNNEHCGNIKAPSLQAWNDAPCDKTFLFICKRPYVPSEPSAWSHPQFEK
2. rCnSL-proB (Clitocybe nebularis) (protein) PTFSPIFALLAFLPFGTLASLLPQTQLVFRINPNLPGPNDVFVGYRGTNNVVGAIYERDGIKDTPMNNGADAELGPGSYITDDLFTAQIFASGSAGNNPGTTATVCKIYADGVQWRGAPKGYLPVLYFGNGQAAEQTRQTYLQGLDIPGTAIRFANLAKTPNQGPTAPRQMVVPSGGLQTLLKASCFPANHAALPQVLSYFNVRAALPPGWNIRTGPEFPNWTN
3. EUL D1A (Oryza sativa) (protein) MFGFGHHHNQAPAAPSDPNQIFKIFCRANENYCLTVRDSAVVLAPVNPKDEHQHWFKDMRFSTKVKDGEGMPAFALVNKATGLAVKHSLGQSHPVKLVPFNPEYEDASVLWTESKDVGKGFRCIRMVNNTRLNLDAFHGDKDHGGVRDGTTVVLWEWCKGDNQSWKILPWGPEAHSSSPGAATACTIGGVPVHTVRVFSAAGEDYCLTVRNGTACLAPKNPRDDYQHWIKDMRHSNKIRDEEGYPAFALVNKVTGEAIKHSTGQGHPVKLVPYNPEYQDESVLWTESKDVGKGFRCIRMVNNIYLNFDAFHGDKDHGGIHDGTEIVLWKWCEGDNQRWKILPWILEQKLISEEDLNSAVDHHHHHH
4. GS13455A-bfa-343-25-343 (Bacteroides fragilis) (protein) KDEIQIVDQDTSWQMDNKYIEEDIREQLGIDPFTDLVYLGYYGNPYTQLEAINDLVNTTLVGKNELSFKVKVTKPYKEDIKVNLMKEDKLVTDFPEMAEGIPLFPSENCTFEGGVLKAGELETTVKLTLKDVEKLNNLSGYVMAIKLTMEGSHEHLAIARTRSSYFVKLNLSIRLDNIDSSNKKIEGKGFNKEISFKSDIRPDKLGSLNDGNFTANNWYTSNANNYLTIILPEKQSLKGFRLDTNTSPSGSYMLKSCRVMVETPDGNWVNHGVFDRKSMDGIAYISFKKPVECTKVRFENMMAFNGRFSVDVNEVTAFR

-0.547
-0.437
-0.87
0.08
